B1: EPB41L3 (parent)
chain: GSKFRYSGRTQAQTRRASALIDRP

- Variants of: B1
- test-protocol: protein stability index of a GFP-peptide fusion (GPS, HEK-293T) (PSI 1-6); higher = more stable;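 note: lentivirally expressed fusions sorted by FACS into six bins by GFP to DsRed ratio, PSI derived from sequencing read proportions per bin multiplied by bin number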
- conditions: c terminus: a fixed tail appended
Mark true (1) for reported protein stability index of 3 or greater; mark false (0) for anything smaller.

Please review the entries below; each comes with its answer.
G8W = false (0)
Q11T = false (0)
F4P = true (1)

Ask: Record T10S ; criterion: protein stability index no lower than 3. Met?
Reply: false (0)

Ask: Does the variant R9D have recorded protein stability index that is 3 or more?
Reply: true (1)

Ask: Would you say A17H shows protein stability index at minimum 3?
Reply: false (0)
